B1: glmS ribozyme (parent)
chain: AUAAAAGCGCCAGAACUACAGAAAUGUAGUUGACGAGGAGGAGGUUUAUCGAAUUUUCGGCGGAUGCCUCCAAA

variants of: B1; test: self-cleavage kobs at 640 uM GlcN6P; higher = faster cleavage; RNA array; details: with glucosamine-6-phosphate
Fewer inactive variants are shown than the library holds.
Entries annotated with measured self-cleavage kobs at 640 uM GlcN6P

Ask: // lookup self-cleavage kobs at 640 uM GlcN6P for A33C C58A
Reply: < 1e-05 s⁻¹

Ask: // lookup self-cleavage kobs at 640 uM GlcN6P for `U2A`
Reply: 0.0236 s⁻¹

Ask: // lookup self-cleavage kobs at 640 uM GlcN6P for G7A G41U
Reply: < 1e-05 s⁻¹

Ask: // lookup self-cleavage kobs at 640 uM GlcN6P for A15C C71G
Reply: 0.00011 s⁻¹

Ask: // lookup self-cleavage kobs at 640 uM GlcN6P for A39U G40A
Reply: 0.00165 s⁻¹

Ask: // lookup self-cleavage kobs at 640 uM GlcN6P for A33U U54A C70A
Reply: 5.86e-05 s⁻¹

Ask: // lookup self-cleavage kobs at 640 uM GlcN6P for G35U A53U G60U
Reply: < 1e-05 s⁻¹

Ask: // lookup self-cleavage kobs at 640 uM GlcN6P for U54G C58A
Reply: 0.00015 s⁻¹

Ask: // lookup self-cleavage kobs at 640 uM GlcN6P for C61G G62A
Reply: < 1e-05 s⁻¹
